Hey, just so you know, these numbers are from the supplement of paper PMC9112550.

- System: Escherichia coli TOP10;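 further: peptides expressed intracellularly from a pBAD plasmid library in pooled LB shake-flask culture, induced with 0.3% L-arabinose, DNA abundance read by NGS, three biological replicates, DESeq2 with apeglm shrinkage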
- procedure.text: shrunken log2 fold change of peptide-encoding DNA abundance (4.5 h post-induction vs induction); higher = less antimicrobial activity (less host growth inhibition)
- test.settings: time post-induction: 4.5 h; library: site-saturation at positions 5, 18, 19, 20
Measured shrunken log2 fold change, listed per entry.
Lab note: write the figure by itself, no unit.

{"biosequence": "RRIRQRPPRLPRPRPRPELIPRP", "observed.value": -0.017}

### Prompt Query: shrunken log2 fold change; subject: RRIRIRPPRLPRPRPRPVKIPRP
### Response 0.0113

### Prompt Query: shrunken log2 fold change; subject: RRIRTRPPRLPRPRPRPMRCPRP
### Response -0.117

### Prompt Query: shrunken log2 fold change; subject: RRIRERPPRLPRPRPRPGPPPRP
### Response 0.317

### Prompt Query: shrunken log2 fold change; subject: RRIRSRPPRLPRPRPRPKKNPRP
### Response 0.267

### Prompt Query: shrunken log2 fold change; subject: RRIRFRPPRLPRPRPRPTPAPRP
### Response 0.951

### Prompt Query: shrunken log2 fold change; subject: RRIRERPPRLPRPRPRPTTIPRP
### Response -0.627

### Prompt Query: shrunken log2 fold change; subject: RRIRIRPPRLPRPRPRPFHYPRP
### Response 0.0334

### Prompt Query: shrunken log2 fold change; subject: RRIRVRPPRLPRPRPRPVTEPRP
### Response -0.164

### Prompt Query: shrunken log2 fold change; subject: RRIRHRPPRLPRPRPRPTSAPRP
### Response 0.0939

### Prompt Query: shrunken log2 fold change; subject: RRIRARPPRLPRPRPRPRWNPRP
### Response 0.00795
